- Procedure Text: Human HepG2 cell viability assay in 384 well format
- Format: toxicity, cell-based
- Set-up: dose 125 nL, time 70.5 hour; concentration not given beside the values
- Assay Context: HepG2 cells, read-out: Inhibition
Assay Readout: cytotoxicity at 70.5 h (%)
Give the value in % but do not write % after it.

CC(=O)N1CCC(c2n[nH]c3nccnc23)CC1 : -7.48
CCN(CC)C(=O)c1cc(Br)cc(S(=O)(=O)N2CCOCC2)c1F : -2.06
O=C(N[C@@H]1CN(Cc2ccoc2)[C@@H]2CCCO[C@@H]21)C1CC1 : -12.9

**Q:** Give a short answer stating reported cytotoxicity at 70.5 h for `Cc1nn(C)c(N(C)C)c1CNCc1ccc2c(c1)OCO2` .
**A:** 29.5

**Q:** Give a short answer stating reported cytotoxicity at 70.5 h for `NC(=O)c1cccc(CNC/C=C/c2ccccc2)c1` .
**A:** 12.6

**Q:** Give a short answer stating reported cytotoxicity at 70.5 h for Cc1ccc(NC2COC3(CCN(Cc4ccn(C)n4)CC3)C2)nn1 (stereo not drawn) .
**A:** -7.47

**Q:** Give a short answer stating reported cytotoxicity at 70.5 h for `NC(=O)C1CCN(c2ncc(-c3cnccn3)c([C@H]3CCCO3)n2)CC1` .
**A:** -11.5

**Q:** Give a short answer stating reported cytotoxicity at 70.5 h for CCn1cc(S(=O)(=O)Nc2nc3c(s2)CC(C)CC3)cn1 (stereo not drawn) .
**A:** -6.65

**Q:** Give a short answer stating reported cytotoxicity at 70.5 h for `c1cnc(-c2noc(C3CN(Cc4ccc5c(c4)CCO5)C3)n2)nc1` .
**A:** -2.95

**Q:** Give a short answer stating reported cytotoxicity at 70.5 h for Cc1ccc(CN(C)C(=O)CN2CCCC2Cn2cccn2)o1 (stereo not drawn) .
**A:** -9.22

**Q:** Give a short answer stating reported cytotoxicity at 70.5 h for c1cncc(C(Cn2cnnc2)N2CCOCC2)c1 (stereo not drawn) .
**A:** 2.14

**Q:** Give a short answer stating reported cytotoxicity at 70.5 h for `O=C(N[C@@H]1CN[C@@H]2CCCO[C@@H]21)c1cscn1` .
**A:** -3.45

**Q:** Give a short answer stating reported cytotoxicity at 70.5 h for `O=C1CC[C@@H](CN(Cc2ccncc2)Cc2nc(CC3CC3)no2)N1` .
**A:** -5.49

**Q:** Give a short answer stating reported cytotoxicity at 70.5 h for `Cc1nc(-c2ccc(Cl)cc2)n(CC(=O)NC(C)C)c(=O)c1CCO` .
**A:** -8.99

**Q:** Give a short answer stating reported cytotoxicity at 70.5 h for `CCc1ccccc1OC1CN(C(=O)CN(C)Cc2ccncc2)C1` .
**A:** -8.04

**Q:** Give a short answer stating reported cytotoxicity at 70.5 h for `CCn1nc(C)c2nc(C)nc(NC3CCCC3)c21` .
**A:** -7.43

**Q:** Give a short answer stating reported cytotoxicity at 70.5 h for `CN(C)c1ncc(CN2CCC(O)(c3ccccc3F)CC2)cn1` .
**A:** -2.07

**Q:** Give a short answer stating reported cytotoxicity at 70.5 h for `CCOC(=O)c1sc2ccsc2c1CNC(=O)COC` .
**A:** 3.32

**Q:** Give a short answer stating reported cytotoxicity at 70.5 h for `Cc1noc(C)c1C(=O)N1CCCN(Cc2cscn2)CC1` .
**A:** -2.11

**Q:** Give a short answer stating reported cytotoxicity at 70.5 h for `COCCCN(C)[C@@H]1c2ccccc2C2(CCNCC2)[C@H]1O` .
**A:** -9.86

**Q:** Give a short answer stating reported cytotoxicity at 70.5 h for `COc1ccccc1CC(=O)N1CCC(NCc2ccc(C)o2)CC1` .
**A:** -11.2

**Q:** Give a short answer stating reported cytotoxicity at 70.5 h for `CC(C)Cc1cc(C(=O)NCCN2CCCS2(=O)=O)[nH]n1` .
**A:** -10.6
